system: Thrips tabaci (onion thrips); experiment: Example B8: Thrips tabaci mixed population, feeding/residual contact, preventive; assay type: in vivo; details: foliar, 168 h, mixed population on sprayed sunflower leaf discs, 7 days incubation, read-out: activity (mortality, special effects)
measurement-type: mortality at 400 ppm

Ask | Lab note: need mortality at 400 ppm with Thrips tabaci (onion thrips) for entry CCn1c(-c2cc(C(F)(F)F)ccn2)nnc1-c1ncc(C(F)(F)F)cc1S(=O)(=O)CC [Compound P65] , please look it up.
Reply | > 80%

Ask | Further, for Cn1c(-c2cc(C(F)(F)F)ccn2)nnc1-c1ncc(C(F)(F)F)cc1SCC1CC1 [Compound P76] ?
Reply | > 80%

Ask | Further, for Cn1c(-c2cc(C(F)(F)F)ccn2)nnc1-c1ncc(C(F)(F)F)cc1S(=O)(=O)CC1CC1 [Compound P72] ?
Reply | > 80%
